IC50 values for the molecules below.
# target_under_test: human CYP2C9 (Homo sapiens (Human))
# Sequence (P11712 whole entry): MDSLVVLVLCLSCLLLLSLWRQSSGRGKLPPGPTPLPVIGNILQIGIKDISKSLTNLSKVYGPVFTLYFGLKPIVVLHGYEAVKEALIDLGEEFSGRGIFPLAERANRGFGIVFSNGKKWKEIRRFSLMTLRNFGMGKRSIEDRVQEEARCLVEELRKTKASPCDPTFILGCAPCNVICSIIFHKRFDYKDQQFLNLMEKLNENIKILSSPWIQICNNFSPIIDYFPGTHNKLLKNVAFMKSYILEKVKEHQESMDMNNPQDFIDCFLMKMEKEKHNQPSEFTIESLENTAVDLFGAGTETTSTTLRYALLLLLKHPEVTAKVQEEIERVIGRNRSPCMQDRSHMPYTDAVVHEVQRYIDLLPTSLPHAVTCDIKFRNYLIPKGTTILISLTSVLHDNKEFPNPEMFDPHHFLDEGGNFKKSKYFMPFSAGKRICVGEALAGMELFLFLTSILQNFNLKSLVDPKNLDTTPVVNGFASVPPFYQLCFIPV
# measurement_protocol: CYP2C9 inhibition (Invitrogen kit, OOMR fluorogenic substrate), Biological Test Example 9
# Type: in vitro ADME
# test_context: read-out: Biological Test Example 9 CYP2C9 IC50
experimental_endpoint: IC50 (µM)

| molecule | experimental_endpoint | measured |
| --- | --- | --- |
| C[C@@H](c1ccc(-c2ccc(=O)[nH]c2)cc1)N1CC[C@](CC(C)(C)NS(C)(=O)=O)(c2ccccc2)OC1=O [Example 10] | IC50 | 30 |
| CCn1cc(-c2ccc([C@H](C)N3CC[C@](CC(C)(C)O)(c4ccccc4)OC3=O)cc2)ccc1=O [Example 53] | IC50 | 30 |
| C[C@@H](c1ccc(-c2ccn(C)c(=O)c2)cc1)N1CC[C@](CC(C)(C)O)(c2ccccc2)OC1=O [Example 48] | IC50 | 30 |
